- TARGET UNDER TEST: Human immunodeficiency virus type 1 reverse transcriptase (Human immunodeficiency virus 1, UniProt Q72547, Y181C)
- ASSAY NAME: Inhibition of HIV1 reverse transcriptase p66/p51 Y181C mutant using poly(rA) template and measured after 40 mins by picogreen based spectrofluorometry
IC50 vs 4 µM: less than gives 1 (yes); not less than gives 0 (no).

{"columns": ["QUERY SMILES", "LABEL VALUE"],
 "data": [
  ["O=c1cc(COCc2ccc(Cl)cc2)n(COCc2ccccc2)c(=O)[nH]1", "1 (yes)"]
]}

Hi there! Is IC50 for N#Cc1ccc(COCn2c(COCc3ccccc3)cc(=O)[nH]c2=O)cc1 below 4 µM, do you know?
1 (yes)

Same again, this time with O=c1cc(COCc2ccccc2)n(COCc2ccccc2)c(=O)[nH]1
0 (no)

Same again, this time with O=c1cc(COCc2ccccc2)n(COCc2cc(Cl)cc(Cl)c2)c(=O)[nH]1
0 (no)

Same again, this time with Cc1cc(C)cc(COCn2c(COCc3ccccc3)cc(=O)[nH]c2=O)c1
0 (no)
